- Test system: CCRIS mutagenicity, Ames/micronucleus/aberration tests
- method.notes: CCRIS mutagenicity studies
- test.context: Test System: MOUSE LYMPHOMA; Strain/Indicator: L5178Y (TK+/TK-); Metabolic Activation: NONE; Method: SUSPENSION/PLATE
Calls of active or inactive are those of the source. The rule behind the calls is not given here.
# valid calls are yes (1) for active, no (0) for inactive; nothing else

# example entries with known answers
# compound, measured.target, assigned.class
rows = [
    ("O=Cc1ccccc1", "CCRIS mutagenicity, Ames/micronucleus/aberration tests", "yes (1)"),
    ("CCN(CC)C(=S)S", "CCRIS mutagenicity, Ames/micronucleus/aberration tests", "yes (1)"),
    ("CCOC(=O)C(Cl)C(C)=O (stereo not drawn)", "CCRIS mutagenicity, Ames/micronucleus/aberration tests", "no (0)"),
    ("Cn1cnc2c1c(=O)[nH]c(=O)n2C", "CCRIS mutagenicity, Ames/micronucleus/aberration tests", "yes (1)"),
    ("CCCCCCCCCCCCS", "CCRIS mutagenicity, Ames/micronucleus/aberration tests", "no (0)"),
]

Inquiry: Dear colleague, could you share the recorded outcome for CC(=O)c1c(C)c([N+](=O)[O-])c(C(C)(C)C)c([N+](=O)[O-])c1C when you have a moment?
Reply text: no (0)

Inquiry: // outcome(item) with item = c1cc(OCC2CO2)cc(OCC2CO2)c1 (stereo not drawn)
Reply text: yes (1)

Inquiry: Outcome? O=C/C=C/c1ccccc1
Reply text: yes (1)

Inquiry: For this compound, state the assay outcome: BrCCBr
Reply text: yes (1)

Inquiry: Write down the call the test reported for this compound. Item: CCCCOC(=O)CC(CC(=O)OCCCC)(OC(C)=O)C(=O)OCCCC
Reply text: no (0)

Inquiry: Answer briefly: the call reported for O=S(=O)(O)c1cc(N=Nc2ccc(O)cc2)ccc1C=Cc1ccc(N=Nc2ccc(O)cc2)cc1S(=O)(=O)O in this assay.
Reply text: no (0)

Inquiry: Hi, do you know how Cc1cc(S(=O)(=O)O)ccc1N came out in this test?
Reply text: no (0)

Inquiry: Returns: the outcome recorded for COC(=O)c1ccccc1C(=O)OC in this assay.
Reply text: no (0)

Inquiry: So what was the verdict on Cc1cc(S(=O)(=O)O)c(N)cc1Cl in this test?
Reply text: no (0)

Inquiry: Assay result, entry Oc1ccccc1 — outcome?
Reply text: yes (1)

Inquiry: Record lookup: outcome of this test for CCC1CCC(CCC(=O)[O-])C1.CCC1CCC(CCC(=O)[O-])C1.[Co+2] (stereo not drawn) ?
Reply text: no (0)

Inquiry: What is the recorded call for this compound in the test? CI
Reply text: yes (1)

Inquiry: Recorded call for O=CC(=O)c1ccccc1 ?
Reply text: yes (1)

---

- Tested on: CCRIS mutagenicity, Ames/micronucleus/aberration tests
- method.notes: CCRIS mutagenicity studies
- test.context: Test System: Mouse lymphoma; Strain/Indicator: L5178Y (tk+/tk-); Metabolic Activation: None; Method: Suspension/plate
Calls of active or inactive are those of the source. The rule behind the calls is not given here.
Would you mind answering with one of these outcomes? Yes = active, No = inactive

Solved cases (3 shown):
# structure.string, measured.target, assigned.class
data = [
    ("COc1cc2c(cc1O)CCN[C@]21CS[C@@H]2c3c(OC(C)=O)c(C)c4c(c3[C@H](COC1=O)N1[C@@H]2[C@H]2c3c(cc(C)c(OC)c3O)C[C@@H]([C@@H]1O)N2C)OCO4", "CCRIS mutagenicity, Ames/micronucleus/aberration tests", "Yes"),
    ("Clc1cc(Cl)nc(Cl)n1", "CCRIS mutagenicity, Ames/micronucleus/aberration tests", "Yes"),
    ("CCCS", "CCRIS mutagenicity, Ames/micronucleus/aberration tests", "No"),
]

Inquiry: Per the assay record, what outcome was assigned to O.O.O.O.O.O.O.[Cl-].[Cl-].[Cl-].[Fe+3] ?
Reply text: No

Inquiry: Please indicate how the test categorized Cc1ccc(N)cc1O .
Reply text: Yes

Inquiry: // param item: COCOC ; yields the recorded call
Reply text: No

Inquiry: Recorded call for CCN(Cc1cccc(S(=O)(=O)O)c1)c1ccc(C(=C2C=CC(=[N+](CC)Cc3cccc(S(=O)(=O)[O-])c3)C=C2)c2ccc(S(=O)(=O)O)cc2)cc1 ?
Reply text: Yes

Inquiry: Short answer needed: outcome of this test for CC1(C)[C@@H]2CC[C@@]1(C)C(=O)C2=O ?
Reply text: Yes

---

- Test system: CCRIS mutagenicity, Ames/micronucleus/aberration tests
- method.notes: CCRIS mutagenicity studies
- test.context: Test System: AMES SALMONELLA TYPHIMURIUM; Strain/Indicator: TA98; Metabolic Activation: RAT, LIVER, S-9, AROCLOR 1254; Method: PREINCUBATION
Calls of active or inactive are those of the source. No rule for the calls is given here.
// allowed return values: label 1 for active, label 0 for inactive

Solved cases (2 shown):
# compound, measured.target, assigned.class
rows = [
    ("Cc1ccccc1C", "CCRIS mutagenicity, Ames/micronucleus/aberration tests", "label 0"),
    ("Clc1cccc(Cl)c1Cl", "CCRIS mutagenicity, Ames/micronucleus/aberration tests", "label 0"),
]

Inquiry: Returns: the outcome recorded for [Cl][Pt-2]([Cl])([Cl])([Cl])([Cl])[Cl] in this assay.
Reply text: label 1

Inquiry: What call does the record list for CCn1c2ccccc2c2cc(N)ccc21 ?
Reply text: label 1

Inquiry: Assay outcome for ClC(Br)Br : what was it?
Reply text: label 0

Inquiry: How was CCN(CC)C(=S)SSC[C@H](NC(=O)CC[C@H](N)C(=O)O)C(=O)NCC(=O)O classified in this test?
Reply text: label 0

Inquiry: Status in this test for CC(=O)NC[C@H](O)COc1cccc2ccccc12 ?
Reply text: label 0

---

- Tested on: CCRIS mutagenicity, Ames/micronucleus/aberration tests
- method.notes: CCRIS mutagenicity studies
- test.context: Test System: AMES SALMONELLA TYPHIMURIUM; Strain/Indicator: TA1537; Metabolic Activation: NONE; Method: STANDARD PLATE
Active and inactive are the calls of the source. The rule behind the calls is not given here.
Could you please pick one outcome from this set? 1.0 (active), 0.0 (inactive)

Solved cases (10 shown):
# compound, measured.target, assigned.class
data = [
    ("CC(=O)Nc1snc2c(Cl)cc(Cl)cc12", "CCRIS mutagenicity, Ames/micronucleus/aberration tests", 0.0),
    ("FC(F)C(F)(F)F", "CCRIS mutagenicity, Ames/micronucleus/aberration tests", 0.0),
    ("Nc1ccc(O)c2c1C(=O)c1c(O)ccc(N)c1C2=O", "CCRIS mutagenicity, Ames/micronucleus/aberration tests", 1.0),
    ("[Cl][Cr]([Cl])[Cl]", "CCRIS mutagenicity, Ames/micronucleus/aberration tests", 0.0),
    ("C[C@@H]1O[C@H](C)[C@@H](O)[C@H](O)[C@@H]1OS(=O)(=O)O", "CCRIS mutagenicity, Ames/micronucleus/aberration tests", 0.0),
    ("CC(C)CCCCCCOC(=O)CCCCC(=O)OCCCCCCC(C)C", "CCRIS mutagenicity, Ames/micronucleus/aberration tests", 0.0),
    ("NC(=O)N/N=C/C(=O)O", "CCRIS mutagenicity, Ames/micronucleus/aberration tests", 0.0),
    ("Cn1cnc2c1c(=O)[nH]c(=O)n2C", "CCRIS mutagenicity, Ames/micronucleus/aberration tests", 0.0),
    ("O=S(=O)(c1ccc(O)cc1)c1ccc(O)cc1", "CCRIS mutagenicity, Ames/micronucleus/aberration tests", 0.0),
    ("O=C(c1ccccc1)n1ncc(Cl)c(Cl)c1=O", "CCRIS mutagenicity, Ames/micronucleus/aberration tests", 0.0),
]

Inquiry: Could you kindly confirm the outcome this assay logged for C=C(C)C(=O)OCCCCCOC(=O)C(=C)C ?
Reply text: 0.0

Inquiry: Record lookup: outcome of this test for CNC(=O)c1c(N(C)N=O)ncn1C ?
Reply text: 0.0

Inquiry: What is the recorded call for this compound in the test? CN(C)CCCNc1c2ccccc2nc2c([N+](=O)[O-])cccc12
Reply text: 1.0

Inquiry: Could you please tell me the result logged for CCCCC(CC)COC(=O)c1ccc(C(=O)O)cc1 (stereo not drawn) in this assay?
Reply text: 0.0

---

- Tested on: CCRIS mutagenicity, Ames/micronucleus/aberration tests
- method.notes: CCRIS mutagenicity studies
- test.context: Test System: AMES SALMONELLA TYPHIMURIUM; Strain/Indicator: TA100; Metabolic Activation: NONE; Method: STANDARD PLATE
Activity calls are given as the source filed them. No rule for the calls is given here.
metric: mutagenic call

Record excerpt, results attached:
# compound, mutagenic call
data = [
    ("CN(C)S(=O)(=O)CCNC(=O)N(CCCl)N=O", "active; positive"),
    ("Cc1ccc(N(O)C=O)cc1", "inactive; negative"),
    ("O=C1OC(O)C(Cl)=C1Cl (stereo not drawn)", "active; positive"),
    ("Cc1cc(S(=O)(=O)O)ccc1N", "inactive; negative"),
    ("O=C(/C=C/c1ccc(-c2ccccc2)cc1)c1ccccc1", "inactive; negative"),
]

Inquiry: For CCRIS mutagenicity, Ames/micronucleus/aberration tests, provide mutagenic call of CC(=O)Nc1ccc2[nH]c3ccccc3c2c1[N+](=O)[O-] please.
Reply text: inactive; negative

Inquiry: Test system CCRIS mutagenicity, Ames/micronucleus/aberration tests; read-out mutagenic call; what value for Cn1c2ccccc2c2nn[n+]([O-])c(C(=O)OCCCl)c21 ?
Reply text: inactive; negative

Inquiry: API: value(readout=mutagenic call, system=CCRIS mutagenicity, Ames/micronucleus/aberration tests) for record C1=CC23CCCC2(C=C1)O3 (stereo not drawn)
Reply text: active; positive

Inquiry: Could you share what mutagenic call was measured for CN(C)CCCNc1c2ccccc2nc2c([N+](=O)[O-])cccc12 , tested on CCRIS mutagenicity, Ames/micronucleus/aberration tests?
Reply text: active; positive

Inquiry: // fetch CCRIS mutagenicity, Ames/micronucleus/aberration tests mutagenic call for C=CC(=O)OCCCCCC
Reply text: inactive; negative

Inquiry: Give mutagenic call (CCRIS mutagenicity, Ames/micronucleus/aberration tests) of the following compound: COC(=O)Nc1nc2ccc(Sc3ccccc3)cc2[nH]1
Reply text: inactive; negative

Inquiry: Item: Oc1cccc2cccnc12 Test system: CCRIS mutagenicity, Ames/micronucleus/aberration tests Read-out: mutagenic call Value: ?
Reply text: inactive; negative

Inquiry: Recorded mutagenic call for Nc1ccccc1C(F)(F)F with CCRIS mutagenicity, Ames/micronucleus/aberration tests, please?
Reply text: inactive; negative

Inquiry: Write down the reported mutagenic call of NC(=Nc1ccccc1)Nc1ccccc1 , test system: CCRIS mutagenicity, Ames/micronucleus/aberration tests.
Reply text: inactive; negative

Inquiry: Return mutagenic call measured with CCRIS mutagenicity, Ames/micronucleus/aberration tests given this compound: CC1CCC(NC(=O)N(CCCl)N=O)CC1 (stereo not drawn)
Reply text: active; positive

Inquiry: What value of mutagenic call on CCRIS mutagenicity, Ames/micronucleus/aberration tests does COc1cc2c(c3oc(=O)c4c(c13)[C@@H](O)CC4=O)[C@@H]1C=CO[C@@H]1O2 have?
Reply text: active; positive

Inquiry: Form: Entry = F | System = CCRIS mutagenicity, Ames/micronucleus/aberration tests | mutagenic call = ____
Reply text: inactive; negative

Inquiry: Record lookup: for CCRIS mutagenicity, Ames/micronucleus/aberration tests, what mutagenic call belongs to N#Cc1ccc(CO)cc1 ?
Reply text: inactive; negative

Inquiry: mutagenic call of Cc1cc(S(=O)(=O)O)c(N)cc1Cl on CCRIS mutagenicity, Ames/micronucleus/aberration tests?
Reply text: inactive; negative

Inquiry: Record O=C(COc1cc(Cl)c(Cl)cc1Cl)N[C@@H](Cc1c[nH]c2ccccc12)C(=O)O : what is its mutagenic call with CCRIS mutagenicity, Ames/micronucleus/aberration tests?
Reply text: inactive; negative

Inquiry: Request: mutagenic call, test system CCRIS mutagenicity, Ames/micronucleus/aberration tests, entry Cn1c2ccccc2c2ccccc21
Reply text: inactive; negative

Inquiry: Query the reported mutagenic call for CCRIS mutagenicity, Ames/micronucleus/aberration tests; item: O=C(C(Cl)Cl)C(Cl)Cl
Reply text: active; positive

Inquiry: Form field: mutagenic call recorded for NC(N)=S with CCRIS mutagenicity, Ames/micronucleus/aberration tests (enter value)
Reply text: inactive; negative

Inquiry: Form field - read-out: mutagenic call; system: CCRIS mutagenicity, Ames/micronucleus/aberration tests; submitted item: O=[N+]([O-])c1ccc2c([N+](=O)[O-])cc3ccccc3c2c1
Reply text: active; positive

Inquiry: Value wanted: mutagenic call (CCRIS mutagenicity, Ames/micronucleus/aberration tests) of entry NCC1CCC(C(=O)c2ccc(CCC(=O)O)cc2)CC1 (stereo not drawn)
Reply text: inactive; negative

Inquiry: Can you look up mutagenic call on CCRIS mutagenicity, Ames/micronucleus/aberration tests for O=C(NC(Cc1cc(=O)[nH]c2ccccc12)C(=O)O)c1ccc(Cl)cc1 (stereo not drawn) ?
Reply text: inactive; negative
